B1: POU domain, class 5, transcription factor 1, residues 134 to 212; numbered along this chain, Q01860 (parent)
chain: EESQDIKALQKELEQFAKLLKQKRITLGYTQADVGLTLGVLFGKVFSQTTICRFEALQLSFKNMCKLRPLLQKWVEEAD

Variants of: B1
protocol description: abundance fitness (aPCA) (normalised: wild type 0, dead -1); higher = more abundant; growth selection in yeast, the domain comes from the species named
condition context: Homo sapiens
Please provide measured abundance fitness for the entries that follow.

Parameters: items (list). Returns: abundance fitness for each item.
1. N63M
2. Q58R
3. Q10E

Return:
-0.088
-0.31
-0.354

Your task in this section: give abundance fitness for each listed record.
1. L36Q
2. L70G
3. K73H
4. A78C
5. C65M

Return:
1: 0.283; 2: -0.574; 3: -0.349; 4: -0.36; 5: -0.04

Just for reference, the Human Domainome abundance scans (Beltran et al. 2025) is where these values come from.
